test system: Staphylococcus sp.; experiment: in vitro antibacterial evaluation, MIC by broth dilution; format: cell-based; conditions: broth dilution, 18 hours at 35° C.
measure_name: MIC Staphylococcus aureus (GC 1131) (µg/mL)
Please give a number only; it is taken to be in µg/mL.

Solved entries (count: 2):
compound	units	MIC Staphylococcus aureus (GC 1131)
CC(C)C(=O)OCC1OC(OC2C(CO)OC(Oc3ccc(CC4NC(=O)C(Cc5ccccc5)NC(=O)CNC(=O)C(CO)NC(=O)C(C(O)C5CNC(=N)N5C5OC(CO)C(O)C(O)C5O)NC(=O)C(C(O)C5CNC(=N)N5)NC4=O)cc3)C(O)C2O)C(O)C(O)C1O (stereo not shown) [Example 283a]	µg/mL	64
CCCC(CCC)C(=O)OCC1OC(OC2C(CO)OC(Oc3ccc(CC4NC(=O)C(C(C)c5ccccc5)NC(=O)CNC(=O)C(CO)NC(=O)C(C(O)C5CNC(=N)N5C5OC(CO)C(O)C(O)C5O)NC(=O)C(C(O)C5CNC(=N)N5)NC4=O)cc3)C(O)C2O)C(O)C(O)C1O (stereo not shown) [Example 99c]	µg/mL	2

Please look at the following compound next.
Quick one: MIC Staphylococcus aureus (GC 1131) of CC=C(C)C(=O)OC1C(CO)OC(OC2C(CO)OC(Oc3ccc(CC4NC(=O)C(C(C)c5ccccc5)NC(=O)CNC(=O)C(CO)NC(=O)C(C(O)C5CNC(=N)N5C5OC(CO)C(O)C(O)C5O)NC(=O)C(C(O)C5CNC(=N)N5)NC4=O)cc3)C(O)C2O)C(O)C1O (stereo not shown) [Example 278b] ? 8

###

test system: Staphylococcus sp.; experiment: in vitro antibacterial evaluation, MIC by broth dilution; format: cell-based; details: broth dilution, 18 hours at 35° C.; strain GC 4551
molecules and their reported MIC Coagulase Negative Staphylococcus (GC 4551)
Entry rule: numbers only, all in µg/mL.

// worked examples, MIC Coagulase Negative Staphylococcus (GC 4551) included
molecule	result_number
CCCCCCCC1OCC2OC(OC3C(CO)OC(Oc4ccc(CC5NC(=O)C(C(C)c6ccccc6)NC(=O)CNC(=O)C(CO)NC(=O)C(C(O)C6CNC(=N)N6C6OC(CO)C(O)C(O)C6O)NC(=O)C(C(O)C6CNC(=N)N6)NC5=O)cc4)C(O)C3O)C(O)C(O)C2O1 (stereo not drawn) [Example 109]	1
CC(c1ccccc1)C1NC(=O)CNC(=O)C(CO)NC(=O)C(C(O)C2CNC(=N)N2C2OC(CO)C(O)C(O)C2O)NC(=O)C(C(O)C2CNC(=N)N2)NC(=O)C(Cc2ccc(OC3OC(CO)C(OC4OC5COC(c6ccc(C=Cc7ccccc7)cc6)OC5C(O)C4O)C(O)C3O)cc2)NC1=O (stereo not drawn) [Example 172]	4
CC(c1ccccc1)[C@@H]1NC(=O)CNC(=O)[C@H](CO)NC(=O)[C@H](C(O)C2CNC(=N)N2)NC(=O)[C@H](C(O)C2CNC(=N)N2)NC(=O)[C@H](Cc2ccc(O)cc2)NC1=O (stereo partly drawn) [Example 280b]	128
Cc1cc(C2OCC3OC(OC4C(CO)OC(Oc5ccc(CC6NC(=O)C(C(C)c7ccccc7)NC(=O)CNC(=O)C(CO)NC(=O)C(C(O)C7CNC(=N)N7C7OC(CO)C(O)C(O)C7O)NC(=O)C(C(O)C7CNC(=N)N7)NC6=O)cc5)C(O)C4O)C(O)C(O)C3O2)ccc1[N+](=O)[O-] (stereo not drawn) [Example 151]	8

Requested read-out: MIC Coagulase Negative Staphylococcus (GC 4551). Entry: CC(C)CCC(=O)OC1C(OC2C(CO)OC(Oc3ccc(CC4NC(=O)C(C(C)c5ccccc5)NC(=O)CNC(=O)C(CO)NC(=O)C(C(O)C5CNC(=N)N5C5OC(CO)C(O)C(O)C5O)NC(=O)C(C(O)C5CNC(=N)N5)NC4=O)cc3)C(O)C2O)OC(CO)C(O)C1O (stereo not drawn) [Example 270a] 4
